Entries annotated with measured GI50
- Test system: HCT-15

> print(dat)
                                   molecule  measured.endpoint    result
1             C/C(=N\O)c1cccc[n+]1Cc1ccccc1               GI50  > 100 µM
2  CC(C)NC(=O)OCc1c(COC(=O)NC(C)C)c(-c2cc[n+](COC(=O)C(C)(C)C)cc2)n2c1CCC2               GI50  > 100 µM
3              N#C/C(=C\c1cc(O)ccc1O)C(N)=O               GI50   44.2 µM
4                       NCc1cc(O)c(O)c(O)c1               GI50  > 100 µM
5  COC(=O)C1CCC(=S)N1C(=O)OCc1ccccc1 (stereo unspecified)               GI50   92.7 µM

Okay, now this molecule:
Exam item: Would you mind telling me what GI50 value was observed for CC1CC2OC(=O)C(C)C2CC2(C)C(OC3OC(CO)C(O)C(O)C3O)OCCC12 (stereo unspecified) ?
Marked response: > 100 µM

Provenance of the data: ChEMBL document CHEMBL1201862
